All figures here come from patent US10597674B2.

Residual turnover by entry:
tested on: HPPD polypeptides (wild-type SEQ ID NO:1 and mutants); details: total change in signal in presence of 50 μM Cmpd. 1, normalised to that without inhibitor; low substrate concentration
METRIC NAME: Residual turnover (%)

MOLECULE: 67 (protein, mutant HPPD polypeptide) MADLYENPMGLMGFEFIEFASPTPGTLEPIFEIMGFTKVATHRSKNVHLYRQGEINLILNNEPNSIASYFAAEHGPSVCGMAFRVKDSQKAYNRALELGAQPIHIDTGPMELNLPAIKGIGGAPLYLIDRFGEGSSIYDIDFVYLEGVERNPVGAGLKVIDHLTHNVYRGRMVYWANFYEKLFNFREARYFDIKGEYTGLTSKAMSAPDGMIRIPLNEESSKGAGQIEEFLMQFNGEGIQHVAFLTDDLVKTWDALKKIGMRFKTAPGDEYYEMLEGRLPDHGEPVDQLQARGILLDGSSVEGDKRLLLQIFSETLMGPVFFEFIQRKGDDGFGPDSFKVLFESVERDQVRRGVLTAD
VAL: 96
//
MOLECULE: 83 (protein, mutant HPPD polypeptide) MADLYENPMGLMGFEFIEFASPTPGTLEPIFEIMGFTKVATHRSKNVHLYRQGEINLILNNEPNSIASYFAAEHGPSVCGMAFRVKDSQKAYNRALELGAQPIHIDTGPMELNLPAIKGIGGAPLYLIDRFGEGSSIYDIDFVYLEGVERNPVGAGLKVIDHLTHNVYRGRMVYWANFYEKLFNFREARYFDIKGEYTGLTSKAMSAPDGMIRIPLNEESSKGAGQIEEFLMQFNGEGIQHVAFLTDDLVKTWDALKKIGMRFMTAPGDEYYEMLEGRLPDHGEPVDQLQARGILLDGSSVEGDKRLLLQIFSETLMGPVFFEFIQRKGDDGFGPDSFKGLFESVERDQVRRGVLTAD
VAL: 87
